Assay: Half life in fasted state healthy human at 50 mg, po administered as single dose
Type: ADME, organism-based
Settings: in vivo
OBSERVABLE: half-life (h)
Field format: number, assumed h, no unit text.

For COP(=O)(c1cc(C)cc(/C=C/C#N)c1)c1c(C(N)=O)[nH]c2ccc(Cl)cc12 (stereo unspecified) , write its half-life. 6.2

* * *

Test: Tmax in fed state female healthy human at 400 mg, po administered as single dose
Format: ADME, organism-based
Conditions: in vivo
OBSERVABLE: Tmax
// return the numeric value with its unit appended

For the compound COP(=O)(c1cc(C)cc(/C=C/C#N)c1)c1c(C(N)=O)[nH]c2ccc(Cl)cc12 (stereo unspecified) , give its reported Tmax. 5 h
